- method: survival rescue of mitochondrial mutant cells in low glucose, primary screen, MELAS cybrids, Rieske KO mouse fibroblasts, CellTiter-Glo (AID 1508586); note: test concentration not given here
- measurement-conditions: Rieske KO mouse fibroblast survival, CellTiter-Glo 72 h
Note to self: values exactly at -0.2 are true. So z-score at or above -0.2 is true, below is false.

Study these solved cases before continuing.
1) CC1=C(C(=O)Nc2ccc3[nH]ncc3c2)C(c2ccc(Cl)c(Cl)c2)CC(=O)N1 (centres undefined)
true
2) COC(=O)Nc1nc2ccc(S(=O)(=O)c3ccc(NC(=O)Nc4cc(C(F)(F)F)ccc4F)cc3)cc2[nH]1
false
3) COc1cc([C@@H]2c3cc4c(cc3[C@H](O)[C@H]3COC(=O)[C@H]23)OCO4)cc(OC)c1OC
true
4) COc1cc(N2CCN(C(C)C)CC2)ccc1Nc1nc(Nc2cccc(F)c2C(=O)O)c2cc[nH]c2n1
false
5) O=C(Nc1n[nH]c2nc(-c3ccco3)c(Br)cc12)C1CC1
true
6) CS(=O)(=O)CCNCc1nc(-c2ccc3ncnc(Nc4ccc(F)c(Cl)c4)c3c2)cs1
false

q: Is z-score for CC1(C)O[C@@H]2C[C@H]3[C@@H]4C[C@H](F)C5=CC(=O)C=C[C@]5(C)[C@H]4[C@@H](O)C[C@]3(C)[C@]2(C(=O)CO)O1 at or above -0.2?
a: true

q: Is z-score for Nc1ncc(-c2cccc(S(N)(=O)=O)c2)c2scc(-c3ccc(F)c(Cl)c3)c12 at or above -0.2?
a: false
